- Test system: AMBEL (Ambrosia artemisifolia)
- Assay Overview: Postemergence herbicidal evaluation
- Format: in vivo, L.
- Assay Setup: postemergence, rate 0.0320 kg/ha
What AMBEL herbicidal rating was measured for each of the following?
One number for each entry.

- Cn1c(C(F)(F)F)cc(=O)n(-c2ccc3snc(-c4ccoc4)c3c2)c1=O [Compound 83]: 2.0
- Cc1cnn(-c2nsc3ccc(-n4c(=O)cc(C(F)(F)F)n(C)c4=O)cc23)c1 [Compound 59]: 9.0
- Cn1c(C(F)(F)F)cc(=O)n(-c2ccc3snc(-c4sccc4CO)c3c2)c1=O [Compound 85]: 5.0
- Cc1nn(-c2nsc3ccc(-n4c(=O)cc(C(F)(F)F)n(C)c4=O)cc23)c(C)c1C [Compound 49]: 0.0
- CCN=C1NC(=O)C(OC)(c2nsc3ccc(-n4c(=O)cc(C(F)(F)F)n(C)c4=O)cc23)N1 (centres unmarked) [Compound 98]: 8.0

Can you give me AMBEL herbicidal rating for all of these, one by one?
1. Cn1c(C(F)(F)F)cc(=O)n(-c2ccc3snc(-c4nccs4)c3c2)c1=O [Compound 53]
2. Cn1c(C(F)(F)F)cc(=O)n(-c2ccc3snc(C4OCC(C[S+](C)[O-])O4)c3c2)c1=O (centres unmarked) [Compound 88]
3. C[C@@H]1OC(c2nsc3cc(F)c(-n4c(=O)cc(C(F)(F)F)n(C)c4=O)cc23)O[C@@H]1C (some centres unmarked) [Compound 66]
4. Cn1c(C(F)(F)F)cc(=O)n(-c2cc3c(C4OCCO4)nsc3cc2F)c1=O [Compound 61]

Return:
1: 6.5; 2: 9.0; 3: 9.0; 4: 9.0

Can you give me AMBEL herbicidal rating for all of these, one by one?
1. Cn1c(C(F)(F)F)cc(=O)n(-c2ccc3snc(C4(O)C(=O)NC(=N)C4(C)C)c3c2)c1=O (centres unmarked) [Compound 96]
2. Cc1sccc1-c1nsc2ccc(-n3c(=O)cc(C(F)(F)F)n(C)c3=O)cc12 [Compound 68]
3. C=CC1COC(c2nsc3ccc(-n4c(=O)cc(C(F)(F)F)n(C)c4=O)cc23)O1 (centres unmarked) [Compound 76]
4. CC1CC(C)(C)OC(c2nsc3ccc(-n4c(=O)cc(C(F)(F)F)n(C)c4=O)cc23)O1 (centres unmarked) [Compound 55]

Return:
1. 4.0
2. 9.0
3. 9.0
4. 9.0

Enquiry: Retrieve AMBEL herbicidal rating measured for Cn1c(C(F)(F)F)cc(=O)n(-c2ccc3snc(-c4sccc4CBr)c3c2)c1=O [Compound 80] and print it.
Return: 7.0

----------
- Tested on: ABUTH (Abutilon theophrasti)
- Assay Overview: Preemergence herbicidal evaluation
- Format: in vivo, Medic.
- Assay Setup: Rate 0.1250 kg/ha; preemergence; rated 4-5 weeks after treatment
What ABUTH preemergence herbicidal rating was measured for each of the following?
Numbers only.

Previously resolved entries follow.
* Cn1c(C(F)(F)F)cc(=O)n(-c2ccc3snc(-c4cccs4)c3c2)c1=O [Compound 3] | 9.0
* Cc1csc(-c2nsc3ccc(-n4c(=O)cc(C(F)(F)F)n(C)c4=O)cc23)n1 [Compound 7] | 9.0
* Cn1c(C(F)(F)F)cc(=O)n(-c2ccc3snc(-c4ccccn4)c3c2)c1=O [Compound 9] | 9.0
* COC(=O)COc1ccsc1-c1nsc2ccc(-n3c(=O)cc(C(F)(F)F)n(C)c3=O)cc12 [Compound 22] | 4.0
* Cc1ccc(-c2nsc3ccc(N4C(=O)C5=C(CCCC5)C4=O)cc23)s1 [Compound 20] | 2.0

Can you give me ABUTH preemergence herbicidal rating for all of these, one by one?
1. Cc1cscc1-c1nsc2ccc(-n3c(=O)cc(C(F)(F)F)n(C)c3=O)cc12 [Compound 26]
2. CC1CCOC(c2nsc3ccc(-n4c(=O)cc(C(F)(F)F)n(C)c4=O)cc23)O1 (stereo not shown) [Compound 37]

Return:
1. 9.0
2. 9.0
